Every entry's value here was drawn from paper PMC11946194.

# Tested system: HIV-1 RT-associated RNase H (Human immunodeficiency virus type 1 group M subtype B, UniProt P04585)
# Construct: quantification of RNase H activity of reverse transcriptase (RT) enzyme
# Assay overview: RT RNase H polymerase-independent cleavage assay
# Type: biochemical
# Description: The HIV-1 RT-associated RNase H activity was measured following the protocol cited by the detection and quantification of RNase H activity of reverse transcriptase (RT) enzyme with a hybrid substrate formed by a fluorescein labeled RNA annealed with Dabcyl DNA. […] IC50 values were determined through nonlinear regression analysis, where the dose–response curves were fitted to a sigmoidal model (log(inhibitor) vs. response) using GraphPad Prism 10 software.
Assay endpoint: pIC50
In plain terms, pIC50 is the concentration in mol/L turned into minus its base-10 logarithm.

pIC50 recorded for this compound, N#Cc1ccc2nc(N3C(=O)CSC3c3c(F)cccc3F)sc2c1 (centres unmarked) , is 4.79

pIC50 recorded for this compound, COc1ccc(OC)c(C2SCC(=O)N2c2nc(-c3ccc(S(=O)(=O)N4CCOCC4)cc3)cs2)c1 (centres unmarked) , is 5.60

pIC50 recorded for this compound, COc1ccc(OC)c(C2SCC(=O)N2c2nc(-c3cccc(S(=O)(=O)N4CCCC4)c3)cs2)c1 (centres unmarked) , is 5.83

pIC50 recorded for this compound, O=C1CSC(c2c(Cl)cccc2Cl)N1c1nc(-c2ccc(S(=O)(=O)N3CCOCC3)cc2)cs1 (centres unmarked) , is 5.05
